- Tested on: HS 578T breast
- method summary: NCI tumour cell line growth inhibition, 48 h
Kindly state GI50 for each of the entries shown.

State its GI50 for this compound: COc1ccc(/C(=C2\O[C@@H]([C@H]3COC(C)(C)O3)[C@H]3OC(C)(C)O[C@@H]23)c2cc(OC)c(OC)c(OC)c2)cc1O 2.83 µM

Input CCOc1cccc(/C=N/NC(=O)c2ccccc2Nc2ccnc(C(F)(F)F)c2)c1O , output reported GI50. 6.92 µM

Tell us which GI50 value is on record for CCCCC/C(C=C(C#N)C#N)=C/c1ccccc1 1.87 µM

Retrieve GI50 measured for NCC(=O)NS(=O)(=O)OC[C@H]1O[C@@H](n2cnc3c(N)ncnc32)[C@H](O)[C@@H]1O and print it. 2.89 µM

Determine from records and report GI50 for COc1cccc(/C=N/NC(=O)c2ccccc2Nc2ccnc(C(F)(F)F)c2)c1O 1.08 µM

Output GI50 of N#C/C(=C1C=C/C(=N/O)C(Br)=C/1)c1ccccc1 2.52 µM

Identify GI50 associated with the compound CC1=C(CCCNS(C)(=O)=O)C2=C(C)C3(CC3)[C@@](C)(O)C(=O)C2=C1 2.73 µM

Find the measured GI50 of Cn1cc(-c2cnc3ccc(NC(=O)Nc4ccc(F)c(Br)c4)cc3n2)cn1 and report it. 2 µM

Supply GI50 value. Item: O=C(CN1CCOCC1)Nc1ccc(Cn2nnc3c2C(=O)c2nnn(Cc4ccc(NC(=O)CN5CCOCC5)cc4)c2C3=O)cc1 1.94 µM

---

- Test system: COLO 205 colon
- method summary: NCI tumour cell line growth inhibition, 48 h
*1 amine or outer side, *2 acyl side, *3 side chain or, on linkers, in order; H or OH if unused. Where a SMILES comes first, the peptide text is derived from it. Bridges are numbered along the chain shown (N, C = ends). [ ]: non-standard residue; d: D form. The star is where a group is joined. ξ: configuration not given here. X34 = O=C(C(CCCCNO[*:3])N[*:1])[*:2]; Fmoc = O=C(OCC1c2ccccc2-c2ccccc21)*; ξW = NC(Cc1c[nH]c2ccccc12)C(=O)O; ξP = O=C(O)C1CCCN1
Entries are sorted into classes by TGI as follows: lower bin (below 4 µM), middle bin (4 µM to below 20 µM), upper bin (20 µM or more)

Each compound maps to one class by TGI. Which class for Cc1c(C(=O)N/N=C/c2ccc(Cl)cc2)nnn1-c1ccnc2c(C(F)(F)F)cccc12 ? lower bin

Category of COC(=O)C1C(C(=O)OC)N(Cc2ccccc2)C(=O)N1Cc1ccccc1 (stereo unspecified) : upper bin

GET /class?item= CCc1c(Oc2ccc(C(C)=O)cc2)c2ccccc2[nH]c1=O upper bin

Lab log: CC1=C(O)C(=O)[C@@H]2O[C@@H]2C1=O — assign TGI category middle bin

Would you mind sorting O=c1oc2ccc(F)cc2c(=O)n1-c1ccc(F)cc1F into the appropriate category? middle bin

Could you tell me which band Cc1c(F)c(N)c2c(=O)cc(-c3ccc(NC(=O)CN(C)C)c(F)c3)oc2c1F belongs to? upper bin

Please report the category associated with CC(C)OP(=O)(OC(C)C)c1c(Nc2ccccc2)n[nH]c1N , nothing else. upper bin

For this compound, which bin applies? Cc1nc(-c2ccc([N+](=O)[O-])cc2)cn2c1nc1ccccc12 upper bin

Please indicate the class for O=C(O)CCCCC(CCSCc1ccccc1)SCc1ccccc1 (stereo unspecified) based on its TGI. upper bin

Record CCCCC(=O)OCC1OC(n2cnc3c(=S)nc[nH]c32)C(OC(=O)CCCC)C1OC(=O)CCCC (stereo unspecified) — which class? middle bin

Given O=C1CNCCCN2CCN(CCCNCC(=O)Nc3ccc(cc3)S(=O)(=O)c3ccc(cc3)NC(=O)CNCCCN3CCN(CCCNCC(=O)Nc4ccc(cc4)S(=O)(=O)c4ccc(cc4)N1)CC3)CC2 , name the class its TGI places it in. upper bin

For this compound, which bin applies? COC(=O)CCCCN=Cc1c(O)c(O)c(C(C)C)c2cc(C)c(-c3c(C)cc4c(C(C)C)c(O)c(O)c(C=NCCCCC(=O)OC)c4c3O)c(O)c12 lower bin

Hi there! Could you help me figure out the category for Cn1cc2ccccc2c1-c1nc(N)nc(F)n1 please? upper bin

Which category does the recorded TGI put CC1=C(CCCNS(C)(=O)=O)C2=C(C)C3(CC3)[C@@](C)(O)C(=O)C2=C1 in? lower bin

Assign a bin to COC(=O)CC(=O)C[P+](c1ccccc1)(c1ccccc1)c1ccccc1 upper bin

Sort NC(=O)CNC(=O)C1CCCN1C(=O)C1CCCCNOC(=O)CC[C@@H](NC(=O)OCC2c3ccccc3-c3ccccc32)C(=O)NC(Cc2c[nH]c3ccccc23)C(=O)N1 (stereo partly specified) (Fmoc-[dE][ξW][X34][ξP]G-NH2; ester 1-3) into one of the categories. upper bin

Hi, small favor: classify OCCC1(O)CCC(O)CC1 (stereo unspecified) by its TGI when you get a moment. upper bin

Form: Item = CNC(=O)OCc1c(COC(=O)NC)c(-c2ccc(Cl)c(Cl)c2)n2c1SCC2 ; Class = ? upper bin

Which category fits this record: CCN(CC)CCc1c2c(nc3ccccc13)C(=O)c1cccnc1C2=O lower bin

Hey, which category is COc1ccc(-c2cc(-c3ccco3)c(C#N)c(=S)n2C2OC(COC(C)=O)C(OC(C)=O)C(OC(C)=O)C2OC(C)=O)cc1 (stereo unspecified) in, do you know? middle bin
